Cited source for all entries: patent US9556191B2

# Measurement target: HER2 (human epidermal growth factor receptor 2) (Homo sapiens (Human), UniProt P04626)
# Sequence (P04626 23-1255): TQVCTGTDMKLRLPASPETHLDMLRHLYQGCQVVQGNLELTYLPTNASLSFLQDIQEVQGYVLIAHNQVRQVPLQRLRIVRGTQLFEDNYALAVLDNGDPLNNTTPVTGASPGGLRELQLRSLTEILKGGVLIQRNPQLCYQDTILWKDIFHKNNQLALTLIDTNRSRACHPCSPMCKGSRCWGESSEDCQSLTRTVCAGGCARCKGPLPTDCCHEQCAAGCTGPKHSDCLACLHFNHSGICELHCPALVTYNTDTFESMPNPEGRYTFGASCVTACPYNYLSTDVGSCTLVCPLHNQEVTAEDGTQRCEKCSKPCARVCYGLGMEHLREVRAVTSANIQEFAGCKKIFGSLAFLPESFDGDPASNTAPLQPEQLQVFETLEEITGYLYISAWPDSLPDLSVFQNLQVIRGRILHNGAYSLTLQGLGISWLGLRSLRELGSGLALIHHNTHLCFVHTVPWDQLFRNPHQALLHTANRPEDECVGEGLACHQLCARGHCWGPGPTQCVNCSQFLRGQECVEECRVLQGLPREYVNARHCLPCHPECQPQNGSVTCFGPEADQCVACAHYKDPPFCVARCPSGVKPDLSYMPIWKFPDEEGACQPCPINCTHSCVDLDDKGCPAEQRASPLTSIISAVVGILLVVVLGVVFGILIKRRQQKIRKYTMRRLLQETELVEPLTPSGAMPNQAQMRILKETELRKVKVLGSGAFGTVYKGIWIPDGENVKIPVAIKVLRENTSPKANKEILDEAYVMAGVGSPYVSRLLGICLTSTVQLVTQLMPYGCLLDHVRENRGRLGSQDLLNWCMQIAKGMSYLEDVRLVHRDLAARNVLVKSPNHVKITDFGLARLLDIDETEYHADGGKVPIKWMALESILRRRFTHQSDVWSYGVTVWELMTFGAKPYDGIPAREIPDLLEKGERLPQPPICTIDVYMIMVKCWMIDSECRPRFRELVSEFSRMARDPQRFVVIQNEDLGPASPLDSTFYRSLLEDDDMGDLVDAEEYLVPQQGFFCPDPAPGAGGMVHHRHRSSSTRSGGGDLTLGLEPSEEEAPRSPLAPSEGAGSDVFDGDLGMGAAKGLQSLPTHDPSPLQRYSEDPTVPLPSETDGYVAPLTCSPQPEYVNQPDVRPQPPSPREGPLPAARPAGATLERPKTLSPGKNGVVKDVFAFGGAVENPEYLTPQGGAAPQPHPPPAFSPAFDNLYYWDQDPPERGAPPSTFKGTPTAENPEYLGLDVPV
# Assay explanation: In vitro kinase inhibitory activity, HER-2
# Assay type: biochemical
Binary label based on IC50 with cut-off 2 nM: below gives class 1, not below gives class 0.

>  <Molecule smiles>
O=C(/C=C/CN1C[C@@H]2OCCO[C@@H]2C1)Nc1ccc2ncnc(Nc3ccc4c(cnn4Cc4cccc(F)c4)c3)c2c1

>  <Cat>
class 1

$$$$
>  <Molecule smiles>
O=C(/C=C/CN1C[C@@H]2OCCO[C@@H]2C1)Nc1cc2c(Nc3ccc(F)c(Cl)c3)ncnc2cc1O[C@H]1CCOC1

>  <Cat>
class 0

$$$$
>  <Molecule smiles>
COc1cc2ncnc(Nc3ccc(OCc4ccccn4)c(Cl)c3)c2cc1NC(=O)/C=C/CN1C[C@@H]2OCCO[C@@H]2C1

>  <Cat>
class 1

$$$$
>  <Molecule smiles>
COc1cc2ncnc(Nc3ccc4c(cnn4Cc4cccc(F)c4)c3)c2cc1NC(=O)/C=C/CN1C[C@@H]2OCCO[C@@H]2C1

>  <Cat>
class 0

$$$$
>  <Molecule smiles>
CCOc1cc2ncnc(Nc3ccc4c(cnn4Cc4cccc(F)c4)c3)c2cc1NC(=O)/C=C/CN1C[C@@H]2OCCO[C@@H]2C1

>  <Cat>
class 1

$$$$

Then there is this molecule:
Query block: # TODO verify IC50 < 2 nM strictly for this molecule: O=C(/C=C/CN1C[C@@H]2OCCO[C@@H]2C1)Nc1ccc2ncnc(Nc3ccc(OCc4cccc(F)c4)c(Cl)c3)c2c1
Result block: class 0

====

# Assay explanation: Rat PK (pharmacokinetics after iv and po administration)
# Type: in vivo
# Run conditions: male, SD, plasma, iv(2 g/kg) [sic], method says 2 mg/kg
Measured Cmax by item
Lab book: enter the figure in ng/mL, no units written.

>  <Compound>
O=C(/C=C/CN1C[C@@H]2OCCO[C@@H]2C1)Nc1cc2c(Nc3ccc(OCc4ccccn4)c(Cl)c3)ncnc2cc1O[C@H]1CCOC1 [Example 25]

>  <Cmax (ng/mL)>
4110

$$$$
>  <Compound>
COc1cc2ncnc(Nc3ccc4c(cnn4Cc4cccc(F)c4)c3)c2cc1NC(=O)/C=C/CN1C[C@@H]2OCCO[C@@H]2C1 [Example 27]

>  <Cmax (ng/mL)>
923

$$$$
>  <Compound>
[2H]C([2H])([2H])Oc1cc2ncnc(Nc3ccc(F)c(Cl)c3)c2cc1NC(=O)/C=C/CN1C[C@@H]2OCCO[C@@H]2C1 [Example 20]

>  <Cmax (ng/mL)>
868

$$$$
>  <Compound>
CCOc1cc2ncnc(Nc3ccc4c(cnn4Cc4cccc(F)c4)c3)c2cc1NC(=O)/C=C/CN1C[C@@H]2OCCO[C@@H]2C1 [Example 28]

>  <Cmax (ng/mL)>
450

$$$$
>  <Compound>
CCOc1cc2ncnc(Nc3ccc(Cl)c(Cl)c3F)c2cc1NC(=O)/C=C/CN1C[C@@H]2OCCO[C@@H]2C1 [Example 32]

>  <Cmax (ng/mL)>
1000

$$$$

As a next step, examine the compound that follows.
Query block: What value of Cmax has been reported for the following compound? O=C(/C=C/CN1C[C@@H]2OCCO[C@@H]2C1)Nc1cc2c(Nc3ccc(Cl)c(Cl)c3F)ncnc2cc1O[C@H]1CCOC1 [Example 34]
Result block: 645

====

# Assay explanation: Rat PK (pharmacokinetics after iv and po administration)
# Type: in vivo
# Run conditions: male, SD, plasma, po 5 vs iv 2 (g/kg [sic]; mg/kg in method), read-out: F (bioavailability)
Measured bioavailability by item
Lab book: enter the figure in %, no units written.

Consider the following illustrative entries.
>  <Molecule smiles>
COc1cc2ncnc(Nc3ccc(OCc4ccccn4)c(Cl)c3)c2cc1NC(=O)/C=C/CN1C[C@@H]2OCCO[C@@H]2C1

>  <bioavailability, %>
73.5

$$$$
>  <Molecule smiles>
COc1cc2ncnc(Nc3ccc(Cl)c(Cl)c3F)c2cc1NC(=O)/C=C/CN1C[C@@H]2OCCO[C@@H]2C1

>  <bioavailability, %>
93.5

$$$$

As a next step, examine the molecule that follows.
Query block: What value of bioavailability has been reported for the following molecule? O=C(/C=C/CN1C[C@@H]2OCCO[C@@H]2C1)Nc1cc2c(Nc3ccc(Cl)c(Cl)c3F)ncnc2cc1O[C@H]1CCOC1
Result block: 68.7

====

Measured IC50 by item
# Measurement target: EGFR T790M (human epidermal growth factor receptor T790M mutation) (Homo sapiens (Human), UniProt P00533, T790M)
# Sequence (P00533 25-1210 T790M): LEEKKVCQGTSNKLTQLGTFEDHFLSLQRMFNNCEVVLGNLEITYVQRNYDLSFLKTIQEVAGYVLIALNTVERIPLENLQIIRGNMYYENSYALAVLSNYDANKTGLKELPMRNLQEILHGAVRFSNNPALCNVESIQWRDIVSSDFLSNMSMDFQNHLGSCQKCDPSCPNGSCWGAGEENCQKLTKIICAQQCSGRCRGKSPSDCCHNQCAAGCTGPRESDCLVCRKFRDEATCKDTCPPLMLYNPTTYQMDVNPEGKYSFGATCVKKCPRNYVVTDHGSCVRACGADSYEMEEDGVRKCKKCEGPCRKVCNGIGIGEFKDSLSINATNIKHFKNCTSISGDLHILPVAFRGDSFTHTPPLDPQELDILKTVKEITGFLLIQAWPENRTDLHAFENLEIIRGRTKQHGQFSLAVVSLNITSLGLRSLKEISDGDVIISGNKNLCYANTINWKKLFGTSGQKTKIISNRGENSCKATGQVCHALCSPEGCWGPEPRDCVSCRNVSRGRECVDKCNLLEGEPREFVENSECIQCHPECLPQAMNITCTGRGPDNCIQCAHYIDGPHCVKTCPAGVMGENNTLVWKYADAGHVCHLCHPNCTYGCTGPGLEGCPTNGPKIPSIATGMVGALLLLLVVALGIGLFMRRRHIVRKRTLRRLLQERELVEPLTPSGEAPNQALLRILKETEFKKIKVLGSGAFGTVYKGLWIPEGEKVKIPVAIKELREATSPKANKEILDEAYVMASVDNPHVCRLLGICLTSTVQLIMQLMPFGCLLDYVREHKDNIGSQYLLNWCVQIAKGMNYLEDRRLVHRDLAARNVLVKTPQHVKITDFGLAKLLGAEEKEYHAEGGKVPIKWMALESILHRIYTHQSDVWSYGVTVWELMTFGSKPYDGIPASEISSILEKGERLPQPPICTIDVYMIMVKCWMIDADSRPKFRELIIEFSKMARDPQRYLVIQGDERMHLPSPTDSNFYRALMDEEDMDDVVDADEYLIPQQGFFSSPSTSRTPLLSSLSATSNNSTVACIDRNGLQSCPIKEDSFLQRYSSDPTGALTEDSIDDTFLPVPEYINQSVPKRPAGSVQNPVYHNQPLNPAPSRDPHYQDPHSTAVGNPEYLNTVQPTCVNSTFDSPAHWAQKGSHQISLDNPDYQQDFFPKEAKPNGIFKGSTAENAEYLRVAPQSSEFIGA
# Assay explanation: In vitro kinase inhibitory activity, EGFR T790M
# Type: biochemical
Lab book: enter the figure in nM, no units written.

Query block: What value of IC50 has been reported for the following compound? CCOc1cc2ncnc(Nc3ccc4c(cnn4Cc4cccc(F)c4)c3)c2cc1NC(=O)/C=C/CN1C[C@@H]2OCCO[C@@H]2C1
Result block: 14.5

Query block: Further, for CCOc1cc2ncnc(Nc3ccc(OCc4ccccn4)c(Cl)c3)c2cc1NC(=O)/C=C/CN1C[C@@H]2OCCO[C@@H]2C1 ?
Result block: 4.2

Query block: Further, for CCOc1cc2ncnc(Nc3ccc(F)c(Cl)c3)c2cc1NC(=O)/C=C/CN1C[C@@H]2OCCO[C@@H]2C1 ?
Result block: 6.2

Query block: Further, for COc1cc2ncnc(Nc3ccc(Cl)c(Cl)c3F)c2cc1NC(=O)/C=C/CN1C[C@@H]2OCCO[C@@H]2C1 ?
Result block: 6.4

Query block: Further, for O=C(/C=C/CN1C[C@@H]2OCCO[C@@H]2C1)Nc1cc2c(Nc3ccc(Cl)c(Cl)c3F)ncnc2cc1O[C@H]1CCOC1 ?
Result block: 7

Query block: Further, for O=C(/C=C/CN1C[C@@H]2OCCO[C@@H]2C1)Nc1ccc2ncnc(Nc3ccc(OCc4cccc(F)c4)c(Cl)c3)c2c1 ?
Result block: 317

Query block: Further, for O=C(/C=C/CN1C[C@@H]2OCCO[C@@H]2C1)Nc1cc2c(Nc3ccc(OCc4ccccn4)c(Cl)c3)ncnc2cc1O[C@H]1CCOC1 ?
Result block: 5.9

====

# Assay explanation: Rat PK (pharmacokinetics after iv and po administration)
# Assay type: in vivo
# Run conditions: male, SD, plasma, iv(2 g/kg) [sic], method says 2 mg/kg, read-out: Vss
Measured Vd by item
Lab book: enter the figure in L/kg, no units written.

Consider the following illustrative entries.
>  <Molecule smiles>
CCOc1cc2ncnc(Nc3ccc(OCc4ccccn4)c(Cl)c3)c2cc1NC(=O)/C=C/CN1C[C@@H]2OCCO[C@@H]2C1

>  <Unit descriptor>
L/kg

>  <Vd>
0.79

$$$$
>  <Molecule smiles>
[2H]C([2H])([2H])Oc1cc2ncnc(Nc3ccc(F)c(Cl)c3)c2cc1NC(=O)/C=C/CN1C[C@@H]2OCCO[C@@H]2C1

>  <Unit descriptor>
L/kg

>  <Vd>
3.71

$$$$

As a next step, examine the compound that follows.
Query block: What value of Vd has been reported for the following compound? O=C(/C=C/CN1C[C@@H]2OCCO[C@@H]2C1)Nc1cc2c(Nc3ccc(OCc4ccccn4)c(Cl)c3)ncnc2cc1O[C@H]1CCOC1
Result block: 0.65

====

# Assay explanation: Rat PK (pharmacokinetics after iv and po administration)
# Type: in vivo
# Run conditions: male, SD, plasma, po(5 g/kg) [sic], method says 5 mg/kg
Property measured: Cmax (ng/mL)
Lab book: enter the figure in ng/mL, no units written.

Consider the following illustrative entries.
>  <Molecule>
CCOc1cc2ncnc(Nc3ccc(OCc4ccccn4)c(Cl)c3)c2cc1NC(=O)/C=C/CN1C[C@@H]2OCCO[C@@H]2C1 [Example 24]

>  <Cmax, ng/mL>
2770

$$$$
>  <Molecule>
O=C(/C=C/CN1C[C@@H]2OCCO[C@@H]2C1)Nc1cc2c(Nc3ccc(Cl)c(Cl)c3F)ncnc2cc1O[C@H]1CCOC1 [Example 34]

>  <Cmax, ng/mL>
378

$$$$
>  <Molecule>
[2H]C([2H])([2H])Oc1cc2ncnc(Nc3ccc(F)c(Cl)c3)c2cc1NC(=O)/C=C/CN1C[C@@H]2OCCO[C@@H]2C1 [Example 20]

>  <Cmax, ng/mL>
336

$$$$
>  <Molecule>
CCOc1cc2ncnc(Nc3ccc(Cl)c(Cl)c3F)c2cc1NC(=O)/C=C/CN1C[C@@H]2OCCO[C@@H]2C1 [Example 32]

>  <Cmax, ng/mL>
748

$$$$
>  <Molecule>
O=C(/C=C/CN1C[C@@H]2OCCO[C@@H]2C1)Nc1cc2c(Nc3ccc(OCc4ccccn4)c(Cl)c3)ncnc2cc1O[C@H]1CCOC1 [Example 25]

>  <Cmax, ng/mL>
73

$$$$
>  <Molecule>
COc1cc2ncnc(Nc3ccc(Cl)c(Cl)c3F)c2cc1NC(=O)/C=C/CN1C[C@@H]2OCCO[C@@H]2C1 [Example 31]

>  <Cmax, ng/mL>
794

$$$$

Query block: What value of Cmax has been reported for the following molecule? CCOc1cc2ncnc(Nc3ccc4c(cnn4Cc4cccc(F)c4)c3)c2cc1NC(=O)/C=C/CN1C[C@@H]2OCCO[C@@H]2C1 [Example 28]
Result block: 147

Query block: Further, for COCCOc1cc2ncnc(Nc3ccc(Cl)c(Cl)c3F)c2cc1NC(=O)/C=C/CN1C[C@@H]2OCCO[C@@H]2C1 [Example 33] ?
Result block: 346

Query block: Further, for COc1cc2ncnc(Nc3ccc(OCc4ccccn4)c(Cl)c3)c2cc1NC(=O)/C=C/CN1C[C@@H]2OCCO[C@@H]2C1 [Example 23] ?
Result block: 1930

Query block: Further, for COc1cc2ncnc(Nc3ccc4c(cnn4Cc4cccc(F)c4)c3)c2cc1NC(=O)/C=C/CN1C[C@@H]2OCCO[C@@H]2C1 [Example 27] ?
Result block: 67.8
